Biological target: K receptor (Kappa opioid receptor) (Cavia porcellus, UniProt P41144)
Construct: fresh guinea pig brain homogenate; from tissue; host or cells: guinea pig whole brain without cerebellum, homogenate
Sequence (P41144 whole entry): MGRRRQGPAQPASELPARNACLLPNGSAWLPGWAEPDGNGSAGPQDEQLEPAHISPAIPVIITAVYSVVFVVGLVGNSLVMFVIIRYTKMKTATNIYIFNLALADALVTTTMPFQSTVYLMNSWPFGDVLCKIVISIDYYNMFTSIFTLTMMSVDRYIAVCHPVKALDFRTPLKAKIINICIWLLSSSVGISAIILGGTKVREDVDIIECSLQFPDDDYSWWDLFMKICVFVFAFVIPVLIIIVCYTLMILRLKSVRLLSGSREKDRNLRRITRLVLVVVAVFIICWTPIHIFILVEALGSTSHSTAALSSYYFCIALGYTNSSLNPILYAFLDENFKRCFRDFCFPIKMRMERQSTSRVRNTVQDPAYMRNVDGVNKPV
Experiment: Radio receptor binding to K sites (tritiated Ethylketocyclazocine)
Set-up: species or system guinea pig
Settings: 40 min; 10^-6 M; guinea pig brain homogenate; Table 3; read-out: Opiate receptor binding K, % residual specific binding at 10^-6 M
Counter-ions that a name gives are not always drawn.
Please respond with reported remaining activity at 1 µM for every item in the list.
Quick note: unit goes after the number.

Data request: What value of remaining activity at 1 µM has been reported for the following compound? O=C(Cc1ccc2c(c1)CCC2)N1CCCCC1CN1CCCC1 (centres unmarked) [Example 12, hydrochloride]
Data returned: 62%

Data request: Next up: O=C(Cc1ccc(Cl)cc1)N1CCCCC1CN1CCCC1 (centres unmarked) [Example 14, hydrochloride]
Data returned: 61%

Data request: Next up: Cc1ccc(CC(=O)N2CCCCC2CN2CCCC2)cc1C (centres unmarked) [Example 11, hydrochloride]
Data returned: 67%

Data request: Next up: O=C(Cc1ccccc1)N1CCCCC1CN1CCCC1 (centres unmarked) [Example 10, hydrochloride]
Data returned: 100%

Data request: Next up: COc1ccc(CC(=O)N2CCCCC2CN2CCCC2)cc1OC (centres unmarked) [Example 15, hydrochloride]
Data returned: 100%

---

Biological target: μ receptor (Cavia porcellus, UniProt A0ACM8Q262)
Sequence (A0ACM8Q262 1-400): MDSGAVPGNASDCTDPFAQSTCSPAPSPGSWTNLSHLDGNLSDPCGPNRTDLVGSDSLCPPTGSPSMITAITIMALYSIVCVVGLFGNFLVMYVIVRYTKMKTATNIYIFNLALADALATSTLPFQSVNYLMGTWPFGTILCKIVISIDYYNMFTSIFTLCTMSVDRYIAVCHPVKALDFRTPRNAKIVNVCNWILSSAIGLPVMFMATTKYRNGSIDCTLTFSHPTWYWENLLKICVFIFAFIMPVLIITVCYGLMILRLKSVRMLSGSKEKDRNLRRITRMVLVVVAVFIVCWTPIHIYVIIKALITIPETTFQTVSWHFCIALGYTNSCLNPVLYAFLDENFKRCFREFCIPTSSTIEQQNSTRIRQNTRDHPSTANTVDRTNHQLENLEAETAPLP
Test: Radio receptor binding to μ sites (3H-DAGO)
Conditions: guinea pig brain homogenate, Table 2, read-out: Receptor binding μ Ki
Method: RECEPTOR AFFINITY STUDY Tissue preparation Radio receptor binding to μ and K sites is performed on fresh guinea pig brain homogenate prepared according to Kosterlitz (1981). Whole brain without cerebellum is homogenized in 50 mM, Tris-buffer (pH 7.4 at 0° C.) and centrifuged at 49,000×g×10 min. […] The filters are then dryed, solubilized in Filtercount and the radioactivity monitored. Non specific binding is determined in the presence of 10^-6 M Naloxone. […]
Counter-ions that a name gives are not always drawn.
value-kind: Ki
Quick note: unit goes after the number.

Data request: What value of Ki has been reported for the following molecule? CN(C)CC1CCCCN1C(=O)Cc1ccc(Cl)c(Cl)c1 (stereo not shown) [Example 2, hydrochloride]
Data returned: 3.73 µM

---

Molecular target: K receptor (Kappa opioid receptor) (Cavia porcellus)
Construct: fresh guinea pig brain homogenate; from tissue; host or cells: guinea pig whole brain without cerebellum, homogenate
Assay: Radio receptor binding to K sites (tritiated Ethylketocyclazocine)
Parameters: species or system guinea pig
Settings: guinea pig brain homogenate, tritiated Ethylketocyclazocine; Table 3; read-out: Opiate receptor binding K Ki
Structures can show the parent of a compound that is named as a salt.
value-kind: Ki (nM)
Answer with a number only, understood to be in nM.

Data request: What value of Ki has been reported for the following compound? O=C(Cc1ccc2c(c1)CCCC2)N1CCCCC1CN1CCCC1 (stereo not shown) [Example 13, hydrochloride]
Data returned: 5.72

---

Please respond with reported pKi for every item in the list.
Target: K receptor (Kappa opioid receptor) (Cavia porcellus, UniProt P41144)
Construct: fresh guinea pig brain homogenate; from tissue; host or cells: guinea pig whole brain without cerebellum, homogenate
Assay: Radio receptor binding to K sites (tritiated Ethylketocyclazocine)
Set-up: species or system guinea pig
Structures can show the parent of a compound that is named as a salt.
pKi (log units): -log10 of the concentration in mol/L.

Data request: What value of pKi has been reported for the following compound? CN(C)C[C@@H]1CCCCN1C(=O)Cc1ccc(Cl)c(Cl)c1 [Example 5, sesquihydrate]
Data returned: 8.30

Data request: Next up: O=C(Cc1ccc(Cl)c(Cl)c1)N1CCCC[C@H]1CN1CCCC1 [Example 4, hydrochloride hydrate]
Data returned: 9.11

Data request: Next up: O=C(Cc1ccc(Cl)c(Cl)c1)N1CCCCCC1CN1CCCC1 (stereo not drawn) [Example 8, hydrochloride]
Data returned: 8.19

Data request: Next up: CN(C)CC1CCCCN1C(=O)Cc1ccc(Cl)c(Cl)c1 (stereo not drawn) [Example 2, hydrochloride]
Data returned: 8.09

Data request: Next up: O=C(COc1ccc(Cl)cc1)N1CCCCC1CN1CCCC1 (stereo not drawn) [Example 17, hydrochloride]
Data returned: 8.02

Data request: Next up: O=C(Cc1ccc(Cl)c(Cl)c1)N1CCCC[C@@H]1CN1CCCC1 [Example 3, hydrochloride hydrate]
Data returned: 7.21

---

Please respond with reported Ki for every item in the list.
Target: μ receptor (Cavia porcellus)
Test: Radio receptor binding to μ sites (3H-DAGO)
Details: read-out: Receptor binding μ Ki, guinea pig brain homogenate, Table 2
Counter-ions that a name gives are not always drawn.
Answer with a number only, understood to be in µM.

Data request: Form field - read-out: Ki; system: μ receptor (Cavia porcellus); submitted item: O=C(Cc1ccc(Cl)c(Cl)c1)N1CCCC[C@H]1CN1CCCC1 [Example 4, hydrochloride hydrate]
Data returned: 1.56

Data request: Next up: O=C(Cc1ccc(Cl)c(Cl)c1)N1CCCC[C@@H]1CN1CCCC1 [Example 3, hydrochloride hydrate]
Data returned: 7.11

Data request: Next up: O=C(Cc1ccc(Cl)c(Cl)c1)N1CCCCC1CN1CCCC1 (stereo not shown) [Example 1, hydrochloride]
Data returned: 1.86
